# Test system: methicillin-sensitive Staphylococcus aureus (MSSA)
# Protocol summary: In vitro antibacterial activity, standard agar dilution method, MSSA
# Assay type: cell-based
# Measurement context: clinically separated strains, read-out: Antibiotic Activity MIC MSSA
Quantity name: MIC (µg/mL)

Sample records with MIC:
>  <Compound>
CC(=O)NC[C@H]1CN(c2ccc(-c3ccc4c(c3)CN(c3nnn(C)n3)C4)c(F)c2)C(=O)O1

>  <Unit of measure>
µg/mL

>  <Measured>
0.5

$$$$
>  <Compound>
O=C1O[C@@H](CO)CN1c1ccc(-c2ccc3c(c2)CN(c2ccn[nH]2)C3)c(F)c1

>  <Unit of measure>
µg/mL

>  <Measured>
1

$$$$
>  <Compound>
Cn1nnnc1N1Cc2ccc(-c3ccc(N4C[C@H](CO)OC4=O)cc3F)cc2C1

>  <Unit of measure>
µg/mL

>  <Measured>
1

$$$$
>  <Compound>
CC(=O)NC[C@H]1CN(c2ccc(-c3ccc4c(c3)CN(c3cnn[nH]3)C4)c(F)c2)C(=O)O1

>  <Unit of measure>
µg/mL

>  <Measured>
0.25

$$$$
>  <Compound>
Cn1nnc(N2Cc3ccc(-c4ccc(N5C[C@H](CO)OC5=O)cc4F)cc3C2)n1

>  <Unit of measure>
µg/mL

>  <Measured>
1

$$$$

1. CC(=O)NC[C@H]1CN(c2ccc(N3CCOCC3)c(F)c2)C(=O)O1 [Linezolid, reference compound]
2. CC(=O)NC[C@H]1CN(c2ccc(-c3ccc4nc(-c5nnn(C)n5)cn4c3)c(F)c2)C(=O)O1 [Compound 38, reference compound]
Incoming: From the items above, decide which of 1 and 2 has the lower MIC reading. Reply with the label of the item you choose.
Outgoing: 2
(2: 0.5 µg/mL, 1: 2 µg/mL)
